Attribute: IC50
# tgt: GABAA receptor
# Construct: IC50; other: compounds of the invention; estimated from Ki by Cheng-Prusoff equation, radioligand 1 nM
# runDescription: Comparative assay: IC50 values estimated from Cheng-Prusoff equation
# condition: compounds of the invention; estimated from Ki by Cheng-Prusoff equation, radioligand 1 nM
Please respond with the number in nM and leave the unit unwritten.

[[record]]
smi = "Cc1ccc(-c2nc3ccc(C)nn3c2CC(=O)Nc2cc(C)on2)cc1"
tgt = "GABAA receptor"
val = 17.1

[[record]]
smi = "Cc1ccc(-c2nc3ccc(C)nn3c2CC(=O)Nc2nncs2)cc1"
tgt = "GABAA receptor"
val = 12.2

[[record]]
smi = "Cc1ccc(-c2nc3ccc(C)nn3c2CC(=O)Nc2ccccn2)cc1"
tgt = "GABAA receptor"
val = 13


Next compound, please.
Reported IC50 (GABAA receptor) for entry Cc1ccc(-c2nc3ccc(C)nn3c2CC(=O)Nc2cc(C)no2)cc1 is 14.6

---

Attribute: % inhib 10^−5 M, affinity for the α2-subunit of the GABAA receptor
# Test system: α2-GABAA receptor
# runDescription: Ligand-binding assay, radiolabeled flumazenil competition, spinal cord membranes
# condition: 10^−5 M; rat spinal cord membranes; radiolabeled flumazenil 1 nM
Please respond with the number in % and leave the unit unwritten.

[[record]]
compound = "CCOc1ccc2nc(-c3ccc(F)cc3)c(CC(=O)N3CCCCC3)n2n1"
unitofmeasurement = "%"
val = 83.7

[[record]]
compound = "CCOc1ccc2nc(-c3ccc(F)cc3)c(CC(=O)N(CC)CC)n2n1"
unitofmeasurement = "%"
val = 79.4

[[record]]
compound = "COc1ccc(-c2nc3ccc(C)nn3c2CC(=O)N2CCCCC2)cc1"
unitofmeasurement = "%"
val = 77.0


Looking up CCCN(CCC)C(=O)Cc1c(-c2ccccc2)nc2ccc(OC)nn12 , I see its % inhib 10^−5 M, affinity for the α2-subunit of the GABAA receptor listed as 84.5

Looking up CCCN(CCC)C(=O)Cc1c(-c2ccc(F)cc2)nc2ccc(OC)nn12 , I see its % inhib 10^−5 M, affinity for the α2-subunit of the GABAA receptor listed as 85.3

Looking up Cc1ccc(-c2nc3ccc(C)cn3c2CC(=O)N(C)C)cc1 [zolpidem, reference compound] , I see its % inhib 10^−5 M, affinity for the α2-subunit of the GABAA receptor listed as 74.1

Looking up Cc1ccc(-c2nc3ccc(C)nn3c2CC(=O)Nc2ccccc2)cc1 , I see its % inhib 10^−5 M, affinity for the α2-subunit of the GABAA receptor listed as 80.9

Looking up CCCN(CCC)C(=O)Cc1c(-c2ccc(OC)cc2)nc2ccc(C)nn12 , I see its % inhib 10^−5 M, affinity for the α2-subunit of the GABAA receptor listed as 88.5

Looking up CCN(CC)C(=O)Cc1c(-c2ccc(OC)cc2)nc2ccc(OC)nn12 , I see its % inhib 10^−5 M, affinity for the α2-subunit of the GABAA receptor listed as 68.8

Looking up Cc1ccc(-c2nc3ccc(C)nn3c2CC(=O)N(C(C)C)C(C)C)cc1 , I see its % inhib 10^−5 M, affinity for the α2-subunit of the GABAA receptor listed as 63.9

---

# Test system: α1-GABAA receptor
# runDescription: Ligand-binding assay, radiolabeled flumazenil competition, cerebellum membranes
# condition: 10^−5 M; rat cerebellum membranes; radiolabeled flumazenil 1 nM
endpointLabel: % inhib 10^−5 M, affinity for the α1-subunit of the GABAA receptor
Be sure to follow the number with its unit.

Would you please look over these solved cases?
[[record]]
compound = "Cc1ccc(-c2nc3ccc(C)nn3c2CC(=O)Nc2ccccn2)cc1 [Example 88]"
val = "100.2%"

[[record]]
compound = "CCCN(CCC)C(=O)Cc1c(-c2ccc(OC)cc2)nc2ccc(C)nn12 [Example 71]"
val = "100.2%"

[[record]]
compound = "CCCN(CCC)C(=O)Cc1c(-c2ccc(F)cc2)nc2ccc(OC)nn12 [Example 41]"
val = "99.8%"

[[record]]
compound = "Cc1ccc(-c2nc3ccc(C)nn3c2CC(=O)NC2CC2)cc1 [Example 93]"
val = "100.0%"

[[record]]
compound = "CCN(CC)C(=O)Cc1c(-c2ccc(OC)cc2)nc2ccc(OC)nn12 [Example 75]"
val = "99.4%"

[[record]]
compound = "CCCN(CCC)C(=O)Cc1c(-c2ccccc2)nc2ccc(C)nn12 [Example 35]"
val = "100.2%"

[[record]]
compound = "Cc1ccc(-c2nc3ccc(C)nn3c2CC(=O)N(C(C)C)C(C)C)cc1 [Example 84]"
val = "100.0%"


Reported % inhib 10^−5 M, affinity for the α1-subunit of the GABAA receptor (α1-GABAA receptor) for entry Cc1ccc(-c2nc3ccc(C)cn3c2CC(=O)N(C)C)cc1 [zolpidem, reference compound] is 99.4%

---

# Test system: α2-GABAA receptor
# runDescription: Ligand-binding assay, radiolabeled flumazenil competition, spinal cord membranes
# condition: 10^−7 M; rat spinal cord membranes; radiolabeled flumazenil 1 nM
# Protocol: a) Ligand-binding Assays. Determination of the Affinity of Test Compounds for α1- and α2-GABAA Receptor Male Sprague-Dawley rats weighing 200-250 g at the time of experiment were used. […] Affinity was determined by competitive tests using radiolabeled flumazenil as ligand. […] The next day the plates were counted using a Perkin-Elmer Microbeta scintillation counter. […]
Attribute: % inhib 10^−7 M, affinity for the α2-subunit of the GABAA receptor
Please respond with the number in % and leave the unit unwritten.

Looking up CCOc1ccc2nc(-c3ccc(F)cc3)c(CC(=O)N(CC)CC)n2n1 , I see its % inhib 10^−7 M, affinity for the α2-subunit of the GABAA receptor listed as 7.8

Looking up CCCN(CCC)C(=O)Cc1c(-c2ccccc2)nc2ccc(C)nn12 , I see its % inhib 10^−7 M, affinity for the α2-subunit of the GABAA receptor listed as 57.9

Looking up CCCN(CCC)C(=O)Cc1c(-c2ccc(F)cc2)nc2ccc(OC)nn12 , I see its % inhib 10^−7 M, affinity for the α2-subunit of the GABAA receptor listed as 17.0

Looking up CCCN(CCC)C(=O)Cc1c(-c2ccc(F)cc2)nc2ccc(OCC)nn12 , I see its % inhib 10^−7 M, affinity for the α2-subunit of the GABAA receptor listed as 20.1

Looking up Cc1ccc(-c2nc3ccc(C)nn3c2CC(=O)Nc2ccccc2)cc1 , I see its % inhib 10^−7 M, affinity for the α2-subunit of the GABAA receptor listed as 23.0

Looking up CCN(CC)C(=O)Cc1c(-c2ccc(OC)cc2)nc2ccc(C)nn12 , I see its % inhib 10^−7 M, affinity for the α2-subunit of the GABAA receptor listed as 23.6

Looking up CCOc1ccc2nc(-c3ccc(F)cc3)c(CC(=O)N3CCCCC3)n2n1 , I see its % inhib 10^−7 M, affinity for the α2-subunit of the GABAA receptor listed as 8.8

Looking up CCCN(CCC)C(=O)Cc1c(-c2ccccc2)nc2ccc(OC)nn12 , I see its % inhib 10^−7 M, affinity for the α2-subunit of the GABAA receptor listed as 27.4

---

Attribute: inhibition in vivo at 98 µmol/kg
# Tested on: male CD1 mice
# runDescription: In vivo predictive sedation-hypnosis test (traveled distance)
# condition: Mus musculus, ip, 0.5 h, 98.0 μmol/kg intraperitoneal, traveled distance over 30 min versus control, read-out: % inhib motor activity
Please respond with the number in % and leave the unit unwritten.

Would you please look over these solved cases?
[[record]]
molecule = "CCCCN(CCCC)C(=O)Cc1c(-c2ccc(Cl)cc2)nc2ccc(OCC)nn12"
tgt = "male CD1 mice"
val = 86.5

[[record]]
molecule = "Cc1ccc(-c2nc3ccc(C)nn3c2CC(=O)NN2CCCCC2)cc1"
tgt = "male CD1 mice"
val = 94

[[record]]
molecule = "CCN(CC)C(=O)Cc1c(-c2ccc(OC)cc2)nc2ccc(OC)nn12"
tgt = "male CD1 mice"
val = 92.6

[[record]]
molecule = "Cc1ccc(-c2nc3ccc(C)nn3c2CC(=O)N2CC(C)CC(C)C2)cc1 (stereo not drawn)"
tgt = "male CD1 mice"
val = 90.8

[[record]]
molecule = "Cc1ccc2nc(-c3ccc(Cl)cc3)c(CC(=O)NN)n2n1"
tgt = "male CD1 mice"
val = 85.5

[[record]]
molecule = "CCCN(CCC)C(=O)Cc1c(-c2ccc(Br)cc2)nc2ccc(OCC)nn12"
tgt = "male CD1 mice"
val = 83.4

[[record]]
molecule = "CCOc1ccc2nc(-c3ccc(F)cc3)c(CC(=O)N(CC)CC)n2n1"
tgt = "male CD1 mice"
val = 96

[[record]]
molecule = "Cc1ccc(-c2nc3ccc(C)nn3c2CC(=O)NC2CC2)cc1"
tgt = "male CD1 mice"
val = 93.2

[[record]]
molecule = "CCN(CC)C(=O)Cc1c(-c2ccc(OC)cc2)nc2ccc(C)nn12"
tgt = "male CD1 mice"
val = 87

[[record]]
molecule = "CCCN(CCOC(C)=O)C(=O)Cc1c(-c2ccc(C)cc2)nc2ccc(C)nn12"
tgt = "male CD1 mice"
val = 94.4


Reported inhibition in vivo at 98 µmol/kg (male CD1 mice) for entry CCCN(CCC)C(=O)Cc1c(-c2ccc(F)cc2)nc2ccc(OC)nn12 is 91.2

Reported inhibition in vivo at 98 µmol/kg (male CD1 mice) for entry CCCCN(CCCC)C(=O)Cc1c(-c2ccc(C)cc2)nc2ccc(Cl)nn12 is 90.9

Reported inhibition in vivo at 98 µmol/kg (male CD1 mice) for entry CCCCN(CCCC)C(=O)Cc1c(-c2ccc(OC)cc2)nc2ccc(C)nn12 is 93.3

Reported inhibition in vivo at 98 µmol/kg (male CD1 mice) for entry CCOc1ccc2nc(-c3ccc(Br)cc3)c(CC(=O)N3CCOCC3)n2n1 is 93.8

Reported inhibition in vivo at 98 µmol/kg (male CD1 mice) for entry CCN(CC)C(=O)Cc1c(-c2ccc(C)cc2)nc2ccc(Cl)nn12 is 94.7

Origin of the recorded values: patent US8993562B2
